Values compiled from patent US20210275556A1.

# assayProtocol: in vivo
# recordedConditions: male, Sprague Dawley, rat, po, 500 mg/kg
experimentalEndpoint: concentration at 8 h (ng/mL)

>>> print(df.to_string())
                                   molecule  experimentalendpoint  recordedresult
0  N[C@H]1C(O)O[C@H](CO)[C@@H](O)[C@@H]1O (stereo partly shown)  concentration at 8 h               8

* * *

# assayProtocol: in vivo
# recordedConditions: male, Sprague Dawley, rat, po, 500 mg/kg
experimentalEndpoint: concentration at 4 h

In [3]: df
Out[3]:
                                   compound  recordedresult
0  N[C@H]1C(O)O[C@H](CO)[C@@H](O)[C@@H]1O (stereo partly shown)       134 ng/mL

* * *

# assayProtocol: in vivo
# recordedConditions: male, Sprague Dawley, rat, po, 500 mg/kg
experimentalEndpoint: concentration at 1 h (ng/mL)

In [3]: df
Out[3]:
                                   compound  experimentalendpoint  recordedresult
0  N[C@H]1C(O)O[C@H](CO)[C@@H](O)[C@@H]1O (stereo partly shown)  concentration at 1 h            2.04
